TARGET UNDER TEST: T1, human IL-11Rα (human, UniProt Q14626 23-363, limits assumed)
T1 construct: Protein coated on ELISA plates and used in solution for BLI; also called hIL-11Rα; hIL-11R
T1 sequence: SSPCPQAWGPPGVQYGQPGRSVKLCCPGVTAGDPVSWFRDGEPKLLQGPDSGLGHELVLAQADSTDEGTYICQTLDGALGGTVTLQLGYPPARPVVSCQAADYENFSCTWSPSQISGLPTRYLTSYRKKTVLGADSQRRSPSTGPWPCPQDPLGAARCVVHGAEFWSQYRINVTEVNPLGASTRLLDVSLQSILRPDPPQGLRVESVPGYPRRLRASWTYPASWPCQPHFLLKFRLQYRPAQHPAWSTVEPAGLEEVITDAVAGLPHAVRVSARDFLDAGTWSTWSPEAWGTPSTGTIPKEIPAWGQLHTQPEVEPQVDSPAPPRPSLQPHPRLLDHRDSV
ASSAY NOTES: BLI (Octet RED96e), mAb on protein G biosensors, hIL-11Rα in solution
pKd: −log10 of the molar value.
OBSERVABLE: pKd

{"columns": ["BINDER", "pKd"],
 "data": [
  ["mAb10 (antibody, V domains shown, Expressed as human IgG4 (S228P EU)) VH: EVQLLESGGGLVQPGGSLRLSCAASGFTFSWYSMTWVRQAPGKGLEWVSSIVAYGDLTQYADSVKGRFTISRDNSKNTLYLQMNSLRAEDTAVYYCAKGPGWGSFDLWGRGTLVTVSS VL: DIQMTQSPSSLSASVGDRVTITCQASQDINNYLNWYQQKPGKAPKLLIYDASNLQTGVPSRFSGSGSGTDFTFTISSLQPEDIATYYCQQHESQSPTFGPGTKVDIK", 9.30],
  ["mAb12 (antibody, V domains shown, Expressed as human IgG4 (S228P EU)) VH: EVQLLESGGGLVQPGGSLRLSCAASGFTFSWYSMTWVRQAPGKGLEWVSSIVPYGDLTQYADSVKGRFTISRDNSKNTLYLQMNSLRAEDTAVYYCAKGPGWYSFDLWGRGTLVTVSS VL: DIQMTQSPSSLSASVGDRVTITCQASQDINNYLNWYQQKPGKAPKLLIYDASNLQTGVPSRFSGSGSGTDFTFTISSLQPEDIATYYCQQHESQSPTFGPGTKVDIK", "> 12.00"],
  ["mAb15 (antibody, V domains shown, Expressed as human IgG4 (S228P EU)) VH: EVQLLESGGGLVQPGGSLRLSCAASGFTFSWYSMTWVRQAPGKGLEWVSSIVPYGDLTQYADSVKGRFTISRDNSKNTLYLQMNSLRAEDTAVYYCAKGPGWGSFDLWGRGTLVTVSS VL: DIQMTQSPSSLSASVGDRVTITCQASQDINNYLNWYQQKPGKAPKLLIYDASNLQTGVPSRFSGSGSGTDFTFTISSLQPEDIATYYCQQHETQTPTFGPGTKVDIK", "> 12.00"],
  ["mAb9 (antibody, V domains shown, Expressed as human IgG4 (S228P EU)) VH: EVQLLESGGGLVQPGGSLRLSCAASGFTFSWYSMTWVRQAPGKGLEWVSGIVPYGDLTQYADSVKGRFTISRDNSKNTLYLQMNSLRAEDTAVYYCAKGPGWGSFDLWGRGTLVTVSS VL: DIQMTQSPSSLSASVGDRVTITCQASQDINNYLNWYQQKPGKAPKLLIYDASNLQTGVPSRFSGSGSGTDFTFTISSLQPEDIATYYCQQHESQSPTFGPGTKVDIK", "> 12.00"]
]}

[in] # get_value(readout='pKd', item= mAb7 (antibody, V domains shown, Expressed as human IgG4 (S228P EU)) VH: EVQLLESGGGLVQPGGSLRLSCAASGFTFSNYAMSWVRQAPGKGLEWVSSIVPYGDLTQYADSVKGRFTISRDNSKNTLYLQMNSLRAEDTAVYYCAKGPGWGSFDLWGRGTLVTVSS VL: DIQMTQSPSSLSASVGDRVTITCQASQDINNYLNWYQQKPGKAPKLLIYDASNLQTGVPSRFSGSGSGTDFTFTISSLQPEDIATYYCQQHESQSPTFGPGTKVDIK )
[out] > 12.00

[in] # get_value(readout='pKd', item= mAb8 (antibody, V domains shown, Expressed as human IgG4 (S228P EU)) VH: EVQLLESGGGLVQPGGSLRLSCAASGFTFSSYAMSWVRQAPGKGLEWVSSIVPYGDLTQYADSVKGRFTISRDNSKNTLYLQMNSLRAEDTAVYYCAKGPGWGSFDLWGRGTLVTVSS VL: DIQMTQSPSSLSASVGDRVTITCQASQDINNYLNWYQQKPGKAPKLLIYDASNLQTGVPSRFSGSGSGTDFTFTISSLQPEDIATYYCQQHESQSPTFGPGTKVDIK )
[out] > 12.00

[in] # get_value(readout='pKd', item= mAb6 (antibody, V domains shown, Expressed as human IgG4 (S228P EU)) VH: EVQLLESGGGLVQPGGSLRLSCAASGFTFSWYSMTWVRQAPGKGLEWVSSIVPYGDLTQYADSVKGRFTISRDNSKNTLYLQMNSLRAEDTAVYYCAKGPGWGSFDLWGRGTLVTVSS VL: DIQMTQSPSSLSASVGDRVTITCQASQDINNYLNWYQQKPGKAPKLLIYDASNLQTGVPSRFSGSGSGTDFTFTISSLQPEDIATYYCQQHEFQSPTFGPGTKVDIK )
[out] > 12.00
